Task for the reader: assign each of the following variants its reported protein stability index.
B1: EHMT1 (parent)
chain: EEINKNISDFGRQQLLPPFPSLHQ

Variants of: B1
EXPERIMENT_DESCRIPTION: protein stability index of a GFP-peptide fusion (GPS, HEK-293T) (PSI 1-6); higher = more stable;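 also: lentivirally expressed fusions sorted by FACS into six bins by GFP to DsRed ratio, PSI derived from sequencing read proportions per bin multiplied by bin number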
CONDITION_SUMMARY: c terminus: a fixed tail appended
Give bare numbers.

Examples with answers:
variant_identifier=L16N observed=3.71
variant_identifier=R12D observed=3.64
variant_identifier=Q13V observed=2.45
variant_identifier=Q13R observed=2.42

Below are some variants; for each one, tell me its protein stability index.
1. Q14V
2. I3Y

[2.77, 2.7]

Below are some variants; for each one, tell me its protein stability index.
1. Q13G
2. L22R
3. Q24T
4. I7V

3
3.62
2.34
2.98

Below are some variants; for each one, tell me its protein stability index.
1. D9F
2. K5C
3. K5E
4. N4K
5. F19V

2.1
2.54
3.15
2.55
3.76

Below are some variants; for each one, tell me its protein stability index.
1. F10L
2. P17C
3. L22S

1: 2.91; 2: 2.84; 3: 4.33

Below are some variants; for each one, tell me its protein stability index.
1. F10Y
2. K5A
3. I7D
4. N4P
5. N4W
6. L15A
7. E1Y

3.11
3.05
3.21
2.69
2.15
2.81
2.11

Below are some variants; for each one, tell me its protein stability index.
1. I3G
2. E1M
3. Q24C
4. K5H

1. 3.01
2. 2.35
3. 1.91
4. 2.86

Below are some variants; for each one, tell me its protein stability index.
1. H23A
2. S8E
3. S21K
4. G11N

1. 3.4
2. 2.86
3. 3.68
4. 3

Below are some variants; for each one, tell me its protein stability index.
1. I3A
2. L22E
3. P17V
4. E2Q
5. Q24W

3.1
4.75
2.18
2.36
3.45
